Reference source: paper PMC2248166

biological target: HLA B*0801 (Homo sapiens, UniProt P01889, A93T/A95T/D138N/E176V/E187T/K202T/Q94N/R180D/S35A/V36M/Y33D/Y91F); test: biochemical
Where a SMILES comes first, the peptide text is derived from it.

{"molecule": "CC[C@H](C)[C@H](NC(=O)[C@H](CO)NC(=O)[C@@H](N)CCCNC(=N)N)C(=O)N[C@@H](CCCNC(=N)N)C(=O)N[C@@H](CCCCN)C(=O)N[C@@H](Cc1ccccc1)C(=O)N[C@@H](CC(N)=O)C(=O)N[C@H](C(=O)N[C@@H](CCSC)C(=O)O)[C@@H](C)O [3102.1003] (H-RSIRKFNTM-OH)", "IC50 (nM)": 17}
{"molecule": "CC[C@H](C)[C@H](NC(=O)[C@H](Cc1ccc(O)cc1)NC(=O)[C@H](CCSC)NC(=O)[C@H](CC(C)C)NC(=O)[C@@H](N)CCC(=O)O)C(=O)N[C@@H](Cc1ccccc1)C(=O)N[C@@H](C)C(=O)N[C@@H](C)C(=O)N[C@@H](CC(C)C)C(=O)O [3102.0539] (H-ELMYIFAAL-OH)", "IC50 (nM)": 30}
{"molecule": "CC[C@H](C)[C@H](NC(=O)[C@@H](N)CS)C(=O)N[C@@H](CCCCN)C(=O)N[C@@H](CO)C(=O)N[C@@H](Cc1c[nH]cn1)C(=O)N[C@@H](CO)C(=O)N[C@H](C(=O)N[C@@H](CO)C(=O)N[C@@H](CC(C)C)C(=O)O)C(C)C [3102.0647] (H-CIKSHSVSL-OH)", "IC50 (nM)": 2.3}
{"molecule": "CC[C@H](C)[C@H](NC(=O)[C@H](CCCCN)NC(=O)[C@@H](NC(=O)[C@H](CCCCN)NC(=O)[C@@H](NC(=O)[C@@H](N)CC(=O)O)[C@@H](C)CC)[C@@H](C)O)C(=O)N[C@@H](CCSC)C(=O)N[C@H](C(=O)N[C@@H](CC(C)C)C(=O)O)C(C)C [3102.0683] (H-DIKTKIMVL-OH)", "IC50 (nM)": 73}
{"molecule": "CC[C@H](C)[C@H](NC(=O)[C@H](CCC(N)=O)NC(=O)[C@H](CCC(=O)O)NC(=O)[C@H](Cc1ccccc1)NC(=O)[C@H](Cc1ccc(O)cc1)NC(=O)[C@H](CC(=O)O)NC(=O)[C@H](CCCNC(=N)N)NC(=O)[C@H](CC(C)C)NC(=O)[C@@H](N)CCC(=O)O)C(=O)O [3102.0939] (H-ELRDYFEQI-OH)", "IC50 (nM)": 13}
{"molecule": "CC[C@H](C)[C@H](NC(=O)[C@@H](N)CC(N)=O)C(=O)N[C@@H](CCSC)C(=O)N1CCC[C@H]1C(=O)N[C@@H](CC(C)C)C(=O)N[C@@H](Cc1ccccc1)C(=O)N1CCC[C@H]1C(=O)N[C@H](C(=O)N[C@@H](Cc1ccccc1)C(=O)O)[C@@H](C)O [3102.0648] (H-NIMPLFPTF-OH)", "IC50 (nM)": 48}
{"molecule": "CC[C@H](C)[C@H](NC(=O)[C@H](CCC(=O)O)NC(=O)[C@H](CCSC)NC(=O)[C@H](CCCNC(=N)N)NC(=O)[C@@H](N)CC(N)=O)C(=O)N[C@@H](Cc1ccccc1)C(=O)N[C@@H](CC(C)C)C(=O)N[C@H](C(=O)N[C@@H](CC(C)C)C(=O)O)C(C)C [3102.0723] (H-NRMEIFLVL-OH)", "IC50 (nM)": 4.9}
